Some compounds, each annotated with its measured AUC(0-t).
# procedure.text: In vivo pharmacokinetic study (PK assay on SD rats)
# applied.conditions: Sprague-Dawley, rat, plasma, PO (3% DMSO + 4% Tween), 1 mg/kg
# Method: 3. In Vivo Pharmacokinetic Study of the Compounds of the Present Disclosure After adaptive domestication, SPF grade SD rats were administered 1 or 3 mg/kg the compounds of the present disclosure by single gavage and tail vein injection, respectively. Plasma was collected at specific time points after administration, and the concentration of compounds in plasma was detected by LC-MS/MS (AB SCIEX Qtrap4500). […]
measurement.type: AUC(0-t) (ng·h/mL)

* NCc1cccc(-c2cc(COc3ccccc3CC(=O)O)cc(N3CCC4(CC3)CC4)c2)c1 | 3240
* NCc1cccc(-c2cc(COc3ccc(F)cc3CC(=O)O)cc(N3CCC4(CC3)CC4)c2)c1 | 1750
* NCc1cccc(-c2cc(COc3ccccc3CC(=O)O)cc(N3CCC4(CC3)CC4)c2)c1F | 2310

###

# procedure.text: In vivo pharmacokinetic study (PK assay on SD rats)
# applied.conditions: Sprague-Dawley, rat, plasma, PO (3% DMSO + 4% Tween), 3 mg/kg
measurement.type: Cmax

• NCc1nccc(-c2cc(COc3ccccc3CC(=O)O)cc(N3CCC4(CC3)CC4)c2)c1F = 1020 ng/mL

###

Read-out record for complement factor D (Homo sapiens, UniProt P00746): IC50
measurement.type: IC50

• NCc1cccc(-c2cc(COc3ccccc3CC(=O)O)cc(N3CCC4(CCC4)C3)c2)c1 = 3 nM
• NCc1cccc(-c2cc(COc3ccccc3CC(=O)O)cc(N3CCC4(CC3)CC4)c2)c1 = 10 nM
• NCc1nccc(-c2cc(COc3ccccc3CC(=O)O)cc(N3CCC4(CC3)CC4)c2)c1F = 15 nM
• NCc1cccc(-c2cc(COc3ccc(F)cc3CC(=O)O)cc(N3CCC4(CC3)COC4)c2)c1F = 7 nM
• NCc1cccc(-c2cc(COc3ccccc3CC(=O)O)cc(N3CCC4(CC3)CC4)c2)c1F = 12 nM
• NCc1cccc(-c2cc(COc3ccccc3CC(=O)O)cc(N3CCC4(CC3)COC4)c2)c1F = 4 nM
• NCc1cccc(-c2cc(COc3ccccc3CC(=O)O)cc(N3CCC4(CCCOC4)CC3)c2)c1 = 4 nM

###

Some compounds, each annotated with its measured half-life.
# procedure.text: In vivo pharmacokinetic study (PK assay on SD rats)
# applied.conditions: Sprague-Dawley, rat, plasma, IV, 1 mg/kg
# Procedure: 3. In Vivo Pharmacokinetic Study of the Compounds of the Present Disclosure After adaptive domestication, SPF grade SD rats were administered 1 or 3 mg/kg the compounds of the present disclosure by single gavage and tail vein injection, respectively. Plasma was collected at specific time points after administration, and the concentration of compounds in plasma was detected by LC-MS/MS (AB SCIEX Qtrap4500). […]
measurement.type: half-life

* NCc1cccc(-c2cc(COc3ccccc3CC(=O)O)cc(N3CCC4(CC3)CC4)c2)c1 | 3.59 h
* NCc1nccc(-c2cc(COc3ccccc3CC(=O)O)cc(N3CCC4(CC3)CC4)c2)c1F | 4.58 h
* NCc1cccc(-c2cc(COc3ccc(F)cc3CC(=O)O)cc(N3CCC4(CC3)CC4)c2)c1 | 3.31 h
* NCc1cccc(-c2cc(COc3ccccc3CC(=O)O)cc(N3CCC4(CC3)CC4)c2)c1F | 0.64 h
